- System: corn
- assay_remarks: Test A preemergence
- Type: in vivo, Zea mays
- test_conditions: Preemergence, 1000 g ai/ha; 0 to 100 scale, 0 no effect, 100 complete control
property_measured: Corn plant response rating

structure_smiles=CCCCN(C)C(=O)c1cc(CC)n(Cc2cccc(OC(F)(F)F)c2)n1 subject_of_test=corn property_measured="Corn plant response rating" recorded_measurement=0
structure_smiles=CCCCNC(=O)c1cc(CC)n(Cc2cccc(C(F)(F)F)c2)n1 subject_of_test=corn property_measured="Corn plant response rating" recorded_measurement=0
structure_smiles=CCc1cc(C(=O)NCCC(F)(F)F)nn1Cc1cccc(OC(F)(F)F)c1 subject_of_test=corn property_measured="Corn plant response rating" recorded_measurement=0
structure_smiles=CCc1cc(C(=O)NC)nn1Cc1cccc(C(F)(F)F)c1 subject_of_test=corn property_measured="Corn plant response rating" recorded_measurement=0
structure_smiles=CCNC(=O)c1cc(CC)n(Cc2cccc(C(F)(F)F)c2)n1 subject_of_test=corn property_measured="Corn plant response rating" recorded_measurement=10
structure_smiles=CCCc1cc(C(=O)NC2CC2)nn1Cc1cccc(C(F)(F)F)c1 subject_of_test=corn property_measured="Corn plant response rating" recorded_measurement=20
structure_smiles=C=CCNC(=O)c1cc(CC)n(Cc2cccc(C(F)(F)F)c2)n1 subject_of_test=corn property_measured="Corn plant response rating" recorded_measurement=20
structure_smiles=CSc1cc(C(=O)NC2CC2)nn1Cc1cccc(C(F)(F)F)c1 subject_of_test=corn property_measured="Corn plant response rating" recorded_measurement=0

###

Listing of recorded Galium plant response rating by entry.
- Tested on: galium
- assay_remarks: Test C preemergence
- Type: in vivo, Galium aparine
- test_conditions: preemergence, 62 g ai/ha; scale 0 to 100 (0 no effect, 100 complete control), 13 to 15 days
property_measured: Galium plant response rating

molecule="CCNC(=O)c1cc(CC)n(Cc2ccnc(OC(F)F)c2)n1 [Compound 130]" property_measured="Galium plant response rating" recorded_measurement=85
molecule="CCCc1cc(C(=O)NCC(F)(F)F)nn1Cc1ccnc(C(F)(F)F)c1 [Compound 105]" property_measured="Galium plant response rating" recorded_measurement=100
molecule="CCCc1cc(C(=O)NOCC)nn1Cc1ccnc(C(F)(F)F)c1 [Compound 185]" property_measured="Galium plant response rating" recorded_measurement=100
molecule="CCOc1cc(C(=O)NC2CC2)nn1Cc1ccnc(OC(F)F)c1 [Compound 133]" property_measured="Galium plant response rating" recorded_measurement=95

###

Listing of recorded Soybean plant response rating by entry.
- Tested on: soybean
- assay_remarks: Test C preemergence
- Format: in vivo, Glycine max
- test_conditions: preemergence, 31 g ai/ha; visual rating, scale 0 to 100 (0 no effect, 100 complete control), 13 to 15 days
property_measured: Soybean plant response rating

structure_smiles=CCc1cc(C(=O)NOC(C)C)nn1Cc1ccnc(C(F)(F)F)c1 property_measured="Soybean plant response rating" recorded_measurement=5
structure_smiles=CCCc1cc(C(=O)NCC)nn1Cc1ccnc(C(F)(F)F)c1 property_measured="Soybean plant response rating" recorded_measurement=80
structure_smiles=O=C(NCC(F)(F)F)c1cc(CCCl)n(Cc2ccnc(C(F)(F)F)c2)n1 property_measured="Soybean plant response rating" recorded_measurement=35
structure_smiles=CCc1cc(C(=O)NC(C)C)nn1Cc1ccnc(C(F)(F)F)c1 property_measured="Soybean plant response rating" recorded_measurement=90
structure_smiles=CCNC(=O)c1cc(CC)n(Cc2ccnc(OC(F)F)c2)n1 property_measured="Soybean plant response rating" recorded_measurement=10
structure_smiles=CCOc1cc(C(=O)NC2CC2)nn1Cc1ccnc(OC(F)F)c1 property_measured="Soybean plant response rating" recorded_measurement=50
structure_smiles=CCCc1cc(C(=O)NCC)nn1Cc1cc(C(F)(F)F)nn1C property_measured="Soybean plant response rating" recorded_measurement=40
structure_smiles=CCNC(=O)c1cc(CC)n(Cc2ccnc(C(F)(F)F)c2)n1 property_measured="Soybean plant response rating" recorded_measurement=40
structure_smiles=CCOc1cc(C(=O)NC(C)C)nn1Cc1ccnc(C(F)(F)F)c1 property_measured="Soybean plant response rating" recorded_measurement=90
structure_smiles=CCCc1cc(C(=O)NCC(F)(F)F)nn1Cc1ccnc(C(F)(F)F)c1 property_measured="Soybean plant response rating" recorded_measurement=70

###

Listing of recorded Barnyardgrass plant response rating by entry.
- Test system: barnyardgrass
- assay_remarks: Test A postemergence
- Assay type: in vivo, Echinochloa crus-galli
- test_conditions: postemergence, 125 g ai/ha, about 10 days, visual rating on 0 to 100 scale (0 no effect, 100 complete control)
property_measured: Barnyardgrass plant response rating

structure_smiles=CCCNC(=O)c1cc(CCC)n(Cc2cc(C(F)(F)F)nn2C)n1 subject_of_test=barnyardgrass property_measured="Barnyardgrass plant response rating" recorded_measurement=90
structure_smiles=CCc1cc(C(=O)NN(C)C)nn1Cc1ccnc(C(F)(F)F)c1 subject_of_test=barnyardgrass property_measured="Barnyardgrass plant response rating" recorded_measurement=10
structure_smiles=CCc1cc(C(=O)NCC(F)(F)F)nn1Cc1nnc(C(F)(F)F)o1 subject_of_test=barnyardgrass property_measured="Barnyardgrass plant response rating" recorded_measurement=0
structure_smiles=CCc1cc(C(=O)NC2CC2)nn1Cc1ccnc(OCC(F)(F)F)c1 subject_of_test=barnyardgrass property_measured="Barnyardgrass plant response rating" recorded_measurement=90

###

- System: pigweed
- assay_remarks: Test A postemergence
- Format: in vivo, Amaranthus retroflexus
- test_conditions: postemergence, 125 g ai/ha, about 10 days, visual rating on 0 to 100 scale (0 no effect, 100 complete control)
Listing of recorded Pigweed plant response rating by entry.
property_measured: Pigweed plant response rating

compound="CCNC(=O)c1cc(CC)n(Cc2ccnc(OC(F)F)c2)n1 [Compound 130]" recorded_measurement=100
compound="CCCNC(=O)c1cc(CCCl)n(Cc2ccnc(C(F)(F)F)c2)n1 [Compound 145]" recorded_measurement=100
compound="CCc1cc(C(=O)NC2CC2)nn1Oc1ccnc(C(F)(F)F)c1 [Compound 83]" recorded_measurement=10

###

Listing of recorded Plant response rating, Ryegrass, Italian by entry.
- Test system: ryegrass, Italian
- assay_remarks: Test C postemergence
- Assay type: in vivo, Lolium multiflorum
- test_conditions: postemergence; 125 g ai/ha; scale 0 to 100, 0 no effect, 100 complete control
property_measured: Plant response rating, Ryegrass, Italian

structure_smiles=CCOc1cc(C(=O)NC2CC2)nn1Cc1ccnc(OC(F)F)c1 recorded_measurement=5
structure_smiles=CCc1cc(C(=O)NC(C)C)nn1Cc1ccnc(C(F)(F)F)c1 recorded_measurement=10
structure_smiles=CCCNC(=O)c1cc(CCC)n(Cc2cc(C(F)(F)F)nn2C)n1 recorded_measurement=5
structure_smiles=CCc1cc(C(=O)NOC(C)C)nn1Cc1ccnc(C(F)(F)F)c1 recorded_measurement=10
structure_smiles=CCc1cc(C(=O)NC2CC2)nn1Cc1ccnc(OCC(F)(F)F)c1 recorded_measurement=15

###

- Tested on: barnyardgrass
- assay_remarks: Test C postemergence
- Assay type: in vivo, Echinochloa crus-galli
- test_conditions: postemergence; 125 g ai/ha; scale 0 to 100, 0 no effect, 100 complete control
property_measured: Plant response rating, Barnyardgrass

structure_smiles=CCNC(=O)c1cc(CC)n(Cc2ccnc(OC(F)F)c2)n1 property_measured="Plant response rating, Barnyardgrass" recorded_measurement=5
structure_smiles=CCCNC(=O)c1cc(CC)n(Cc2ccnc(OC(F)F)c2)n1 property_measured="Plant response rating, Barnyardgrass" recorded_measurement=10
structure_smiles=CCc1cc(C(=O)NOC(C)C)nn1Cc1ccnc(C(F)(F)F)c1 property_measured="Plant response rating, Barnyardgrass" recorded_measurement=5
structure_smiles=CCc1cc(C(=O)NCC(F)(F)F)nn1Cc1cc(OC(F)F)nn1C property_measured="Plant response rating, Barnyardgrass" recorded_measurement=5

###

- Test system: wheat
- assay_remarks: Test A preemergence
- Assay type: in vivo, Triticum aestivum
- test_conditions: preemergence, 125 g ai/ha, visual injury approx. 10 days after treatment
Listing of recorded Wheat plant response rating (0 to 100 scale) by entry.
property_measured: Wheat plant response rating (0 to 100 scale)

structure_smiles=CCCc1cc(C(=O)NOCC)nn1Cc1ccnc(C(F)(F)F)c1 recorded_measurement=70
structure_smiles=CCc1cc(C(=O)NC2CC2)nn1Cc1ccnc(OCC(F)(F)F)c1 recorded_measurement=0
structure_smiles=CCc1cc(C(=O)NCC(F)(F)F)nn1Oc1cccc(OC(F)(F)F)c1 recorded_measurement=0
structure_smiles=CCCNC(=O)c1cc(COC)n(Cc2cc(C(F)(F)C(F)(F)F)nn2C)n1 recorded_measurement=0
structure_smiles=CCc1cc(C(=O)NC2CC2)nn1Cc1cc(C(F)(F)C(F)(F)F)nn1C recorded_measurement=40
structure_smiles=CCc1cc(C(=O)NC2CC2)nn1Oc1cccc(C(F)(F)F)c1 recorded_measurement=0
structure_smiles=CCNC(=O)c1cc(CCCl)n(Cc2ccnc(C(F)(F)F)c2)n1 recorded_measurement=10
